Catalogue of viability, T/C readings, one per entry.
# Test system: 616215-338-R-J1-PDC complex spheroid viability;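 note: spheroids exposed to agents for seven days before viability readout; 100% = DMSO vehicle control viability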
# test_description: Anticancer human tumor 616215-338-R-J1-PDC patient-derived colon adenocarcinoma cell line growth inhibition [RAS]
# stated_conditions: second compound 0.003 µM; first compound 10 µM; stronger effect = lower value
# From the text: RAS pathway inhibitors in Combinations in Complex Spheroids A high-throughput screen of multi-cell type tumor spheroids was designed to identify active combinations of RAS pathway inhibitors and targeted small molecules. Complex spheroids include a stromal component modeled by human endothelial cells (HUVEC) and fibroblasts modeled by human mesenchymal stem cells (MSCs). […] Compounds. […] If the clinical Cmax for an agent had not been determined, the highest concentration tested was 10 microM. […]
Provide the reading as a plain figure in %.

compound	viability, T/C, %
NC1c2ccccc2OC12CCN(c1cnc3c(N4CCCc5ncccc54)n[nH]c3n1)CC2 (configuration not stated) + CCn1c(-c2cc(N3CCN(C)CC3)cnc2C(C)OC)c2c3cc(ccc31)-c1csc(n1)CC(NC(=O)C1CC1C)C(=O)N1CCCC(N1)C(=O)OCC(C)(C)C2	37.1

With those in mind, consider the next compound.
QUERY: Which viability, T/C is listed for NC1c2ccccc2OC12CCN(c1cnc3c(N4CCCc5ncccc54)n[nH]c3n1)CC2 (configuration not stated) + CCn1c(-c2cccnc2C(C)OC)c2c3cc(ccc31)N1CCOC(CC(NC(=O)C(C(C)C)N(C)C(=O)C3(F)CCN(C(=O)C#CC(C)(C)N(C)C)CC3)C(=O)N3CCCC(N3)C(=O)OCC(C)(C)C2)C1 ?
RESULT: 43
